Exercise: state measured pIC50 for each of the compounds provided.
Target: FAAH (Homo sapiens (Human), UniProt O00519)
Sequence (O00519 whole entry): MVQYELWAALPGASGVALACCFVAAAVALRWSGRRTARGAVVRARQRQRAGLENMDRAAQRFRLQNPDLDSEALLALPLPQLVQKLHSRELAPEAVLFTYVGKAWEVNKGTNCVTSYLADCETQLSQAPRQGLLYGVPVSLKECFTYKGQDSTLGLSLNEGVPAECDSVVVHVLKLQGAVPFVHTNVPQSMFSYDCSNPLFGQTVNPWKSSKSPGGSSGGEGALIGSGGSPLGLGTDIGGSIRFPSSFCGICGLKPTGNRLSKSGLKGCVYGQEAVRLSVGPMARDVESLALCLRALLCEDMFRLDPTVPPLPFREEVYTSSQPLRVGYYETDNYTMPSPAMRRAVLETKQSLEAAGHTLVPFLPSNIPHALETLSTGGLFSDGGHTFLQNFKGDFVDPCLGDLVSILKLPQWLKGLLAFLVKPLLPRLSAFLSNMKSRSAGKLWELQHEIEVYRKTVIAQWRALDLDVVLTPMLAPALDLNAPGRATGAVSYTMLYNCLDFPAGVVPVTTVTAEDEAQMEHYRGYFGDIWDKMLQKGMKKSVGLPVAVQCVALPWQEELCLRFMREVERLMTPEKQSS
Experiment: Assay Method 1: FAAH assay, T84 cell homogenate, 3H-anandamide hydrolysis
Assay type: biochemical
Settings: 3H-AEA tracer 200 nM, 1 h at rt, hydrochloride
Where a name gives a salt, the structure may show the parent alone.
Numbers only, as −log10 of the molar value.

O=C(Nc1ccccc1)N1CCN(Cc2ccc3c(c2)OCO3)CC1 [Example B1, hydrochloride, reference compound]    5.92
COc1cc(Br)cc(CN2CCN(C(=O)Nc3ccccc3)CC2)c1O [Example 161, hydrochloride]    6.68

# evaluate next
QUERY: Look up pIC50 of O=C(Nc1ccccc1)N1CCN(Cc2ccc(Br)c(Br)c2)CC1 [Example 162, hydrochloride] and report it.
RESULT: 7.42
